# testedOn: T1, Lsb3, P43603
# T1 sequence (P43603 385-451, looked up): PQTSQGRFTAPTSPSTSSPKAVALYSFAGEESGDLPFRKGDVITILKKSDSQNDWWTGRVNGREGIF
# testProtocol: SPOT array
# settings: median of control spots 406
measuredEndpoint: SPOT intensity
Give bare numbers.

Example results:
binder: KTRLRPAFIQQLWSS
SPOT intensity: 0
//
binder: VKPRQLFPIPLNKVD
SPOT intensity: 0
//
binder: VRVKKRPLIRPLNSS
SPOT intensity: 6
//
binder: SSSSSPPPLPTRRDH
SPOT intensity: 485
//
binder: SKSRLLIELPEGFFT
SPOT intensity: 0

Respectfully, I request SPOT intensity for each entry included below.
1. VDFTLPPPPPPPGLD
2. HVRRSILALPLGVLL

1: 0; 2: 0

Reference source for all entries: paper PMC2756588
